Field: growth inhibition. Provide a value for each of the compounds that follow.
- Procedure Details: NCI Yeast Anticancer Drug Screen. Data for the rad14 strain (AID 159);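 also: 0% = growth of vehicle-treated control cultures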
- Run Parameters: S. cerevisiae rad14 strain growth inhibition; at 11.0 µM; hits give high values
This is part of a sample that, as a whole, favours compounds with a hit. Of some 79,000 tested, about 15% had one in any assay.
One number for each entry, in %.

As a guide, the following entries are already answered.
| Compound | Endpoint Unit | growth inhibition |
| --- | --- | --- |
| NNC(=O)CCc1ccc2ccc3ccccc3c2c1 | % | -3 |
| C[Si](C)(C)CNC(=O)OCc1ccccc1 | % | 0 |
| CCOC(=O)c1cnc2c(C(F)(F)F)cccc2c1N=[N+]=[N-] | % | 3 |
| Nc1nc(Cl)c(Cl)c(Cl)n1 | % | 30 |
| COC(=O)c1ccc(NCC2=CC(=O)C=CC2=O)cc1O | % | 98 |
| O=C1C2C=CC1C1C(=O)OC(=O)C21 (centres undefined) | % | -48 |
| COC(=O)c1cc(-c2ccc(C)cc2)[nH]c(=O)c1C#N | % | -6 |
| c1ccc2c(c1)c1ncccc1c1nccnc21 | % | 23 |

List reported growth inhibition for each of these compounds:
1. O=C(COC(=O)c1cc(O)c(O)c(O)c1)c1ccc(-c2ccccc2)cc1
2. Cn1c(=O)c2ccccc2c2ccccc21
3. COc1ccc(C2c3cc4c(cc3OC(C)(O)C2C)OCO4)c(OC)c1 (centres undefined)

Data returned:
1. 9
2. 15
3. -4
